# Protocol Summary: chemical genetic growth profiling, strain panel (AID 1159580);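 further: tested at 20 µM; growth read once vehicle control cultures reached saturation at 30 °C; 1 = growth at the plate median or of vehicle wells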
# Applied Conditions: S. cerevisiae deletion strains, growth OD, locus YNL271C, strain bni1
The whole screen tested about 5,500 compounds, of which about 2,000 (36%) were called active. Inconclusive results (about 18%) are left out. No stated cut-off is given here; in the data, active means normalized growth mostly below about 0.91 (no sharp cut-off); inconclusive means no clear call, values can overlap the other calls; inactive means mostly above about 0.92. The list shows a part of the results.
Labels: Y = active, N = inactive

• O=c1[nH]c2cc(Cl)c(Cl)cc2[nH]c1=O = N
• COc1cc([C@@H]2c3cc4c(cc3[C@H](OC(C)=O)[C@H]3COC(=O)[C@H]23)OCO4)cc(OC)c1OC = N
• CC(=O)O[C@@H]1CC2C(C)(C)CCC(=O)[C@]2(C)C2CC[C@@]3(C)[C@H](c4ccoc4)OC(=O)C4OC43[C@@]21C (some centres not stated) = N
• C=CCCCCCCCCCCCC(O)CC(O)CO (configuration not stated) (tested in a mixture with another compound) = Y
• CN1CCOC(c2ccccc2)c2ccccc2C1 (configuration not stated) = N
• COc1c2c(cc3c1OCO3)CC[N+](C)=C2 = N
• C=CCc1ccccc1OCC(O)CNC(C)C (configuration not stated) = N
• CC(=O)OC1CC2C(C)(C)CCCC2(C)C2CCC3(C)C(c4ccoc4)OC(=O)C4OC43C12C (configuration not stated) = N
• CCC(/C=C/[C@@H](C)[C@H]1CCC2C3CC=C4C[C@@H](O)CC[C@]4(C)C3CC[C@@]21C)C(C)C (some centres not stated) = N
• CCOC(=O)C1C(C=C(C)C)C1(C)C (configuration not stated) = N
• CSc1ccc2c(c1)C(N1CCN(C)CC1)Cc1ccccc1S2 (configuration not stated) = N
• O=C1c2c(O)ccc(O)c2C(=O)c2c(NCCNCCO)ccc(NCCNCCO)c21 = N
• COc1cccc(-c2cc(=O)c3cc(OC)ccc3o2)c1 = Y
• CN1CCN2c3ccccc3Cc3ccccc3C2C1 (configuration not stated) = N
• O=c1c(-c2ccc(O)cc2)coc2cc(O)cc(O)c12 = N
• CCN(CCCCOC(=O)c1ccc(OC)c(OC)c1)C(C)Cc1ccc(OC)cc1 (configuration not stated) = N
• COc1ccc(-c2cc(=O)c3cc(OC)ccc3o2)cc1 = N
• C=CCCCCCCCCCCCC(O)CC(O)CO (configuration not stated) = N
• O=C1CC[C@]23C=CC(=O)NCCCCNCCCNC(=O)/C=C/c4ccc(c2c4)O[C@@H]3C1 = N
• O=c1c2ccccc2[se]n1-c1ccccc1 = Y
• CC(=O)Nc1cccc(O)c1 = N
• CN(N=O)C(=O)N[C@@H]1[C@@H](O)[C@H](O)[C@@H](CO)O[C@@H]1O = N
• O=C1CCc2cc(OCCCCc3nnnn3C3CCCCC3)ccc2N1 = N
• COC(=O)C[C@H]1C(C)(C)C(=O)[C@@H]2CC3=C4CC(OC)O[C@@H](c5ccoc5)[C@]4(C)CCC3[C@@]1(C)C2=O (some centres not stated) = N
• COc1cccc(-c2cc(=O)c3ccc(OC)cc3o2)c1 = N
• O=c1c(-c2ccccc2)coc2cc(O)cc(O)c12 = Y
• CC(C)=CCc1c2c(c(O)c3c(=O)c(O)c(-c4ccccc4)oc13)C=CC(C)(C)O2 = Y
• CCN(CC)CCNc1ccc(CO)c2sc3ccccc3c(=O)c12 = N
• COc1ccc2c(=O)cc(-c3ccccc3OC)oc2c1 = N
• ClC(Cl)=C(c1ccc(Cl)cc1)c1ccc(Cl)cc1 = N
• CN1CCc2c(c3ccccc3n2Cc2ccccc2)C1 = N
• Cc1cc2cc3c(C)cc(=O)oc3c(C)c2o1 = N
• CC1(C)O[C@@H]2CC3C4CCC5=CC(=O)C=C[C@]5(C)[C@@]4(F)[C@@H](O)C[C@]3(C)[C@]2(C(=O)CO)O1 (some centres not stated) = N
• COc1ccc2cc3[n+](cc2c1OC)CCc1cc2c(cc1-3)OCO2 = N
• COc1cc2c3cc1Oc1cc(ccc1O)C[C@@H]1c4c(cc(OC)c(O)c4Oc4ccc(cc4)C[C@@H]3N(C)CC2)CC[N+]1(C)C = N
• CCn1cc(C(=O)O)c(=O)c2cc(F)c(N3CCNCC3)cc21 = N
• Nc1ccc(C(=O)O)c(O)c1 (tested in a mixture with another compound) = N
• CC1NC(=O)NC1=O (configuration not stated) = N
• CC(=O)O[C@H]1C[C@@]2(C)[C@H](c3ccoc3)OC(=O)[C@H]3O[C@]32[C@@]2(C)C1[C@]1(C)C(C[C@H]2OC(C)=O)C(C)(C)[C@H](OC(C)=O)C[C@@H]1OC(C)=O (some centres not stated) = N
• CC(=O)[C@H]1CCC2C3CC=C4C[C@@H](O)CC[C@]4(C)C3CC[C@@]21C (some centres not stated) = N
• CCCCCCCCCCCCCCCC[n+]1ccccc1 = Y
• C[N+]1(CCCCC[N+]2(C)CCCC2)CCCC1 = N

* * *

# Protocol Summary: chemical genetic growth profiling, strain panel (AID 1159580);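 further: tested at 20 µM; growth read once vehicle control cultures reached saturation at 30 °C; 1 = growth at the plate median or of vehicle wells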
# Applied Conditions: S. cerevisiae deletion strains, growth OD, locus YMR125W, strain sto1
Among all 5,500 compounds or so, about 2,000 (36%) were called active. About 18% were inconclusive and are not listed. No stated cut-off is given here; in the data, active means normalized growth mostly below about 0.91 (no sharp cut-off); inconclusive means no clear call, values can overlap the other calls; inactive means mostly above about 0.92. Some of the results follow.
Labels: 1 (active), -1 (inactive)

* O=c1c2ccccc2[se]n1-c1ccccc1 | 1
* CC1=C2C(=CO[C@H](C)[C@H]2C)C(=O)C(C(=O)O)=C1O | -1
* CC(C)Oc1ccc2c(=O)cc(-c3ccccc3)oc2c1 | -1
* COc1ccc(-c2cc(=O)c3ccccc3o2)cc1 | -1
* N[C@@H]1CONC1=O | -1
* CC(=O)N(O)CCCCCNC(=O)CCC(=O)N(O)CCCCCNC(=O)CCC(=O)N(O)CCCCCN | -1
* COc1c(O)cc2c(-c3ccccc3)cc(=O)oc2c1OC | -1
* COC(=O)C1=C(C)NC(C)=C(C(=O)OCC(C)C)C1c1ccccc1[N+](=O)[O-] (stereo not given) | 1
* CC1=CCc2c(cc3oc(C)cc(=O)c3c2O)OC1 | -1
* S=c1ccss1 | -1
* CC(=O)O.CC(=O)O.[Cd] | 1
* [N-]=[N+]=CC(=O)OCC(N)C(=O)O (stereo not given) | -1
* COc1cc2c(cc1OC)-c1cc3ccc(OC)c(OC)c3c[n+]1CC2 | -1
* COCCOC(=O)C1=C(C)NC(C)=C(C(=O)OC(C)C)C1c1cccc([N+](=O)[O-])c1 (stereo not given) | -1
* CC1(C)O[C@@H]2CC3C4C[C@H](F)C5=CC(=O)C=C[C@]5(C)[C@@]4(F)[C@@H](O)C[C@]3(C)[C@]2(C(=O)CO)O1 (stereo not given in full) | -1
* C=C1C(N)CC2CC1C2(C)C (stereo not given) | -1
* CC(=O)CC(c1ccccc1)c1c(O)c2ccccc2oc1=O (stereo not given) | -1
* COc1c2c(cc3c1OCO3)CC[N+](C)=C2 | -1
* COC(=O)C1=C(C)NC(C)=C(C(=O)OC)C1c1ccccc1[N+](=O)[O-] | -1
* COc1ccc(-c2cc(=O)c3ccccc3o2)cc1OC | 1
* COc1c(O)cccc1O | -1
* COc1cc2cc[n+]3cc4c(OC)c(OC)ccc4cc3c2cc1OC | -1
* CCN(CC)CCNc1ccc(CO)c2sc3ccccc3c(=O)c12 | -1
* Cn1c(=O)c2[nH]c(C3CCCC3)nc2n(C)c1=O | -1
* C[n+]1cc2c3c(ccc2c2ccc4cc5c(cc4c21)OCO5)OCO3 | 1

* * *

normalized growth values for the molecules below.
# Protocol Summary: chemical genetic growth profiling, strain panel (AID 1159580);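 further: tested at 20 µM; growth read once vehicle control cultures reached saturation at 30 °C; 1 = growth at the plate median or of vehicle wells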
# Applied Conditions: S. cerevisiae deletion strains, growth OD, locus YER155C, strain BEM2, stronger effect = lower value
Screen size: about 5,500 compounds; about 2,000 (36%) were called active. About 18% were inconclusive and are not listed. The list shows a part of the results.
Measure: normalized growth

- OC1C(O)C(O)C(O)C(O)C1O (stereo unspecified): 0.999
- CC(=O)Oc1c(-c2ccccc2)oc2c(CC=C(C)C)c3c(c(OC(C)=O)c2c1=O)C=CC(C)(C)O3: 1
- CN(N=O)C(=O)N[C@@H]1[C@@H](O)[C@H](O)[C@@H](CO)O[C@@H]1O: 1
- NCC(=O)CCC(=O)O: 1.01
- CC[N+]1(C)CCCC(OC(=O)C(O)(c2ccccc2)c2ccccc2)C1 (stereo unspecified): 1
- COC(=O)C1=C(C)NC(C)=C(C(=O)OC)C1c1ccccc1[N+](=O)[O-]: 1.01

* * *

# Protocol Summary: chemical genetic growth profiling, strain panel (AID 1159580);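 further: tested at 20 µM; growth read once vehicle control cultures reached saturation at 30 °C; 1 = growth at the plate median or of vehicle wells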
# Applied Conditions: S. cerevisiae deletion strains, growth OD, locus YJL187C, strain SWE1 (second series), stronger effect = lower value
In all, about 5,500 compounds went through this assay and about 2,000 (36%) were called active. Not shown: some 18% with an inconclusive outcome. This is one part of the list.
Measure: normalized growth

- CC[N+]1(C)CCCC(OC(=O)C(O)(c2ccccc2)c2ccccc2)C1 (stereo unspecified): 1.01
- Cc1cc(=O)c2c(O)c3c(cc2o1)OCC(C)CC3 (stereo unspecified): 0.908
- CC1=CCc2c(cc3oc(C)cc(=O)c3c2O)OC1: 0.867
- Cc1cc(=O)c2c(o1)-c1c(cc(O)c(O)c1C(=O)O)OC2: 1.02
- Cc1cc(=O)c2c(O)c3c(cc2o1)OC(C)(C)CC3: 0.973
- CCCN1C[C@H](CSC)C[C@@H]2c3cccc4[nH]cc(c34)C[C@H]21: 1

Hey, just so you know, these numbers are from PubChem BioAssay AID1159580.
